The values you see were collected from ChEMBL document CHEMBL2346557.

Assay: Clearance in CD1 mouse at 10 mg/kg, iv
Type: ADME, organism-based
Design: dose 10 mg/kg, route intravenous
Conditions: in vivo
Entries and their measured clearance follow.
READOUT_LABEL: clearance (mL/min/kg)

CHEMICAL_STRUCTURE	UNIT_STRING	RECORDED_NUMBER
C[C@@H]1C[C@H]2[C@@H]3CCC4=CC(=O)C=C[C@]4(C)C3=CC[C@]2(C)[C@@]1(O)C(=O)CO	mL/min/kg	18.8
C[C@@H]1C[C@H]2[C@@H]3CCC4=CC(=O)C=C[C@]4(C)C3=CC[C@]2(C)[C@H]1C(=O)CO	mL/min/kg	48.2

---

Target: Voltage-gated inwardly rectifying potassium channel KCNH2 (Homo sapiens)
Sequence (Q12809 whole entry): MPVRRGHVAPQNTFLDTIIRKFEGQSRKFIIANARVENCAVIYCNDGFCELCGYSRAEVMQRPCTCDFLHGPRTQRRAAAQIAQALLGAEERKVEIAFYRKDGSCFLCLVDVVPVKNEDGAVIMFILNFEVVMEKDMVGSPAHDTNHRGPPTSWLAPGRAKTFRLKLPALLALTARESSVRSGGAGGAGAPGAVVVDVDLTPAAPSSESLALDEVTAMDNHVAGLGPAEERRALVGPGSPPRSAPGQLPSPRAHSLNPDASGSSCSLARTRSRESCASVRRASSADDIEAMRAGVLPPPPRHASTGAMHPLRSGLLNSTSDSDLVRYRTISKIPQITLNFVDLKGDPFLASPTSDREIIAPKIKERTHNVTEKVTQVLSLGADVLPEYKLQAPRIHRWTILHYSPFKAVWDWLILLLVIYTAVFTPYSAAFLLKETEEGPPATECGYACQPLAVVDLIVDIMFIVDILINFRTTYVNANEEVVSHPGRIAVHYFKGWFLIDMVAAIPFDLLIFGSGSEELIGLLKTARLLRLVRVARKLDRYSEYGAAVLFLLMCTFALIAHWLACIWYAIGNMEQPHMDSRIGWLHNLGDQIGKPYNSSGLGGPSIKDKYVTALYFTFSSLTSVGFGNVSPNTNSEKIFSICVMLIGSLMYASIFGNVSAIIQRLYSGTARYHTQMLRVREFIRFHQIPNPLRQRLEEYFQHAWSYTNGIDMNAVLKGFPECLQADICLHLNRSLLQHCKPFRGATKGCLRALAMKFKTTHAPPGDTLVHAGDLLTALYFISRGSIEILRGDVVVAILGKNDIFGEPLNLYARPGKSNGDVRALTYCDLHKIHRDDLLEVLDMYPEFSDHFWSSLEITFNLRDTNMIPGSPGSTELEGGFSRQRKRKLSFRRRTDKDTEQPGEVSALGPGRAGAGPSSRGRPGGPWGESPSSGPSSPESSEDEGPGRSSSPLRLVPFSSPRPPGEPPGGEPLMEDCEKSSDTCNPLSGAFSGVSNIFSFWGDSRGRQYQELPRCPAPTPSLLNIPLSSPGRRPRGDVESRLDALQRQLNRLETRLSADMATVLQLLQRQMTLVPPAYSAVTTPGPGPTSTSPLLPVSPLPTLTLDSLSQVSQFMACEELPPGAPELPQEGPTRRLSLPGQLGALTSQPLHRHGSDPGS
READOUT_LABEL: IC50 (µM)

CHEMICAL_STRUCTURE	UNIT_STRING	RECORDED_NUMBER
C[C@@H]1C[C@H]2[C@@H]3CCC4=CC(=O)C=C[C@]4(C)C3=CC[C@]2(C)[C@@]1(O)C(=O)CO	µM	20

---

Assay: Terminal half life in CD1 mouse at 50 mg/kg, po
Format: ADME, organism-based
Set-up: dose 50 mg/kg, route oral
Conditions: in vivo, read-out: beta t1/2 (converted)
Each entry below carries its recorded half-life.

CHEMICAL_STRUCTURE	UNIT_STRING	half-life
C[C@@H]1C[C@H]2[C@@H]3CCC4=CC(=O)C=C[C@]4(C)C3=CC[C@]2(C)[C@@]1(O)C(=O)CO	min	40.7
C[C@@H]1C[C@H]2[C@@H]3CCC4=CC(=O)C=C[C@]4(C)C3=CC[C@]2(C)[C@H]1C(=O)CO	min	39.5

---

# AUC(0-t) per entry
Assay: AUClast in CD1 mouse at 50 mg/kg, po
Format: ADME, organism-based
Parameters: time 0 - last, dose 50 mg/kg, route oral
Conditions: plasma
READOUT_LABEL: AUC(0-t) (ng·h/mL)

CHEMICAL_STRUCTURE	UNIT_STRING	RECORDED_NUMBER
C[C@@H]1C[C@H]2[C@@H]3CCC4=CC(=O)C=C[C@]4(C)C3=CC[C@]2(C)[C@@]1(O)C(=O)CO	ng·h/mL	32900
C[C@@H]1C[C@H]2[C@@H]3CCC4=CC(=O)C=C[C@]4(C)C3=CC[C@]2(C)[C@H]1C(=O)CO	ng·h/mL	22000

---

Biological target: Cytochrome P450 2D6 (Homo sapiens, UniProt P10635)
Sequence (P10635 whole entry): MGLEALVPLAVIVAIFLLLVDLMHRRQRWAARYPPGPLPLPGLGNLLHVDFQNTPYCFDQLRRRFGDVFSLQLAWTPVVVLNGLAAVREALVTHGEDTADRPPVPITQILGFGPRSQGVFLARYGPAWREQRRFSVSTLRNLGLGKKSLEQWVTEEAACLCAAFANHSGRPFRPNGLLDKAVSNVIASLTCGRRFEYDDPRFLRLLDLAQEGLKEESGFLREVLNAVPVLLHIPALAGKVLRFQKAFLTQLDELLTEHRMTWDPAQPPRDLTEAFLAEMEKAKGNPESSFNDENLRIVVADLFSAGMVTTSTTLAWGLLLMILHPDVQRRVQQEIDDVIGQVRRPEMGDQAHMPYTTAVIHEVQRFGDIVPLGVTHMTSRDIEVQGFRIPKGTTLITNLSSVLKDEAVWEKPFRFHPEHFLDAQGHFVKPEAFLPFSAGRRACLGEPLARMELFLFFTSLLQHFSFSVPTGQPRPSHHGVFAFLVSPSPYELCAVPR

CHEMICAL_STRUCTURE	IC50
C[C@@H]1C[C@H]2[C@@H]3CCC4=CC(=O)C=C[C@]4(C)C3=CC[C@]2(C)[C@@]1(O)C(=O)CO	> 50 µM

---

Experiment: Terminal half life in beagle dog at 30 mg/kg, po
Assay type: ADME, organism-based, Canis lupus familiaris
Design: dose 30 mg/kg, route oral
Conditions: in vivo, read-out: beta t1/2 (converted)

CHEMICAL_STRUCTURE	half-life [min]
C[C@@H]1C[C@H]2[C@@H]3CCC4=CC(=O)C=C[C@]4(C)C3=CC[C@]2(C)[C@@]1(O)C(=O)CO	135

---

Test: AUClast in CD1 mouse at 10 mg/kg, iv
Assay type: ADME, organism-based
Design: time 0 - last, dose 10 mg/kg, route intravenous
Details: plasma
READOUT_LABEL: AUC(0-t)

CHEMICAL_STRUCTURE	READOUT_LABEL	RESULT
C[C@@H]1C[C@H]2[C@@H]3CCC4=CC(=O)C=C[C@]4(C)C3=CC[C@]2(C)[C@@]1(O)C(=O)CO	AUC(0-t)	8840 ng·h/mL
C[C@@H]1C[C@H]2[C@@H]3CCC4=CC(=O)C=C[C@]4(C)C3=CC[C@]2(C)[C@H]1C(=O)CO	AUC(0-t)	3450 ng·h/mL
